- assay.name: Solubility at pH 5
- Assay type: physicochemical
- setup.conditions: buffer
We begin with a simple list: items and their reported solubility.
Give just the numeric value; µg/mL need not be written.

compound	solubility, µg/mL
C#CCN(Cc1ccc2ncnc(O)c2c1)c1ccc(C(=O)NC(CCC(=O)O)C(=O)O)cc1 (configuration not stated)	43

QUERY: Field request: solubility | item: C#CCN(Cc1ccc2[nH]c(N)nc(=O)c2c1)c1ccc(C(=O)NC(CCC(=O)O)C(=O)O)cc1 (configuration not stated)
RESULT: 8.6

---

- tested.system: UniProt:P07607
- Sequence (P07607 whole entry): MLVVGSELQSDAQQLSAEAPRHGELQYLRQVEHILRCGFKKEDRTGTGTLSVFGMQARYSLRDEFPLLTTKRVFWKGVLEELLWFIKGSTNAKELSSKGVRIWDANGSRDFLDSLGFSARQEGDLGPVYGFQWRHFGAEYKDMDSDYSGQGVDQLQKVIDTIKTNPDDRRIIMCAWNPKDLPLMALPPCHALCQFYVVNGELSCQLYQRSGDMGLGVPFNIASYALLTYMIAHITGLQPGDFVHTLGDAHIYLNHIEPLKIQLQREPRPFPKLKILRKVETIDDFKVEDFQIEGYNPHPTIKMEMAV
- assay.name: Inhibitory concentration of compound to inhibit Thymidylate synthase (TS) in L1210 cells at conc. of 200 uM
Measured IC50 by item
Report the value in µM with no unit label.

compound	tested.system	unit.label	readout.value
CN(Cc1ccc2nc(N)nc(O)c2c1)c1ccc(C(=O)NC(CCC(=O)O)C(=O)O)cc1 (centres undefined)	UniProt:P07607	µM	0.36
C=CCN(Cc1ccc2ncnc(O)c2c1)c1ccc(C(=O)NC(CCC(=O)O)C(=O)O)cc1 (centres undefined)	UniProt:P07607	µM	1.12
CN(Cc1ccc2ncnc(O)c2c1)c1ccc(C(=O)NC(CCC(=O)O)C(=O)O)cc1 (centres undefined)	UniProt:P07607	µM	1.06

QUERY: Requested field: IC50. Item: C=CCN(Cc1ccc2nc(N)nc(O)c2c1)c1ccc(C(=O)NC(CCC(=O)O)C(=O)O)cc1 (centres undefined)
RESULT: 0.28
